Molecular target: UniProt:P42227
Experiment: Fluorescence Polarization Assay
Conditions: pH 7.5; 22 °C
Protocol: Fluorescence polarization (FP) binding assay is utilizing the intrinsic property of the fluorescent probe, which will have low polarization value when free in solution. On binding to a target, the polarization of the probe will increase. Reaction mixtures of full length STAT3 alpha and the probe were placed in wells of a 96-well microtiter plate. The test peptide solution was added to each well. Fluorescence polarization was then read in a Tecan Polarian plate reader. […]
Square brackets hold non-standard residues; d marks the D form. Peptide text beside a SMILES is read from it. * marks the point of attachment. ξ: configuration not given here. pY = N[C@@H](Cc1ccc(OP(=O)(O)O)cc1)C(=O)O; Met(O2) = CS(=O)(=O)CC[C@H](N)C(=O)O; Hydrocinnamoyl = O=C(CCc1ccccc1)*; Thr(3ξ) = CC(O)[C@H](N)C(=O)O; Bz = O=C(c1ccccc1)*
Checkbox rule: IC50 lower than 900 nM = True; IC50 not lower than 900 nM = False.

- molecule: "CC(C)C[C@H](NC(=O)[C@H](Cc1ccc(OP(=O)(O)O)cc1)NC(=O)CCc1ccccc1)C(=O)N1CCC[C@H]1C(=O)N[C@@H](CCC(N)=O)C(=O)N[C@H](C(N)=O)C(C)O (stereo not given in full) (Hydrocinnamoyl-[pY]LPQ[Thr(3ξ)]-NH2)"
  target-entity: "UniProt:P42227"
  assigned-category: "True"
- molecule: "CC(C)C[C@H](NC(=O)[C@H](Cc1ccc(OP(=O)(O)O)cc1)NC(=O)c1ccccc1)C(=O)N1CCC[C@H]1C(=O)N[C@@H](CCC(N)=O)C(=O)N[C@H](C(N)=O)C(C)O (stereo not given in full) (Bz-[pY]LPQ[Thr(3ξ)]-NH2)"
  target-entity: "UniProt:P42227"
  assigned-category: "True"
- molecule: "CC(=O)N[C@@H](Cc1ccc(OP(=O)(O)O)cc1)C(=O)N[C@@H](CC(C)C)C(=O)N1CCC[C@H]1C(=O)N[C@@H](CCC(N)=O)C(N)=O (Ac-[pY]LPQ-NH2)"
  target-entity: "UniProt:P42227"
  assigned-category: "True"
- molecule: "CC(=O)N[C@@H](Cc1ccc(OP(=O)(O)O)cc1)C(=O)N[C@@H](CC(C)C)C(=O)N1CCC[C@H]1C(=O)N[C@@H](CCS(C)(=O)=O)C(=O)N[C@H](C(N)=O)C(C)O (stereo not given in full) (Ac-[pY]LP[Met(O2)][Thr(3ξ)]-NH2)"
  target-entity: "UniProt:P42227"
  assigned-category: "False"
- molecule: "CC(=O)N[C@@H](Cc1ccc(OP(=O)(O)O)cc1)C(=O)N[C@H](C(=O)N1CCC[C@H]1C(=O)N[C@@H](CCC(N)=O)C(=O)N[C@H](C(N)=O)C(C)O)C(C)C (stereo not given in full) (Ac-[pY]VPQ[Thr(3ξ)]-NH2)"
  target-entity: "UniProt:P42227"
  assigned-category: "False"

----------
Target: Signal transducer and activator of transcription 3 (Mus musculus, UniProt P42227)
Sequence (P42227 whole entry): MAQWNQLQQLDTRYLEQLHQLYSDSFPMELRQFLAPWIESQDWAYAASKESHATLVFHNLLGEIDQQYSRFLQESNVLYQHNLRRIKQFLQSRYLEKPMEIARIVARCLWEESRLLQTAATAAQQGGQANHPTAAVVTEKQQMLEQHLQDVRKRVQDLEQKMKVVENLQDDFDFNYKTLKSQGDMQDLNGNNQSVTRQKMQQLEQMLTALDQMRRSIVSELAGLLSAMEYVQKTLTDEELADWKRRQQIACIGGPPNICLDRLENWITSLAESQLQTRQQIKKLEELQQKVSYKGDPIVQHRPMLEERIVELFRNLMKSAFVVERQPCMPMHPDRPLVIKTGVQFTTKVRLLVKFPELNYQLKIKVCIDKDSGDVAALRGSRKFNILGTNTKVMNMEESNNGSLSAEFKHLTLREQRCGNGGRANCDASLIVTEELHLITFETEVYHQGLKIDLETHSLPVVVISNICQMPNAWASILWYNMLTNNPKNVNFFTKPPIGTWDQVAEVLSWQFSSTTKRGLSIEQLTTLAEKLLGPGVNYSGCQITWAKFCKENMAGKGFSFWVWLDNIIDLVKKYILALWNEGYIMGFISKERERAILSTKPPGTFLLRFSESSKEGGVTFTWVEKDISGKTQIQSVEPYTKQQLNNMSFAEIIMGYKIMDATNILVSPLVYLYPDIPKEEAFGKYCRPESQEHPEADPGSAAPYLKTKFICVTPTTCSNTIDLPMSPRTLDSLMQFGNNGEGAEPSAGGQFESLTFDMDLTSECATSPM
Assay: Fluorescence Polarization Assay
Square brackets hold non-standard residues; d marks the D form. Peptide text beside a SMILES is read from it. * marks the point of attachment. ξ: configuration not given here. pY = N[C@@H](Cc1ccc(OP(=O)(O)O)cc1)C(=O)O; NH(1R-phenylethyl) = C[C@@H](N*)c1ccccc1; NH(1S-phenylethyl) = C[C@H](N*)c1ccccc1; NMeThr(3ξ) = CN[C@H](C(=O)O)C(C)O; 3Abz = Nc1cccc(C(=O)O)c1; Piperidide = C1CCN(*)CC1; Pyrrolidide = C1CCN(*)C1; NEt2 = CCN(CC)*
In this section we review reported log10 IC50 values for a set of compounds.
property-name: log10 IC50 (log10 of the value in nM)

- compound: "CC(=O)N[C@@H](Cc1ccc(OP(=O)(O)O)cc1)C(=O)N[C@@H](CC(C)C)C(=O)N1CCC[C@H]1C(=O)N[C@@H](CCC(N)=O)C(=O)N(C)[C@H](C(N)=O)C(C)O (stereo not given in full) (Ac-[pY]LPQ[NMeThr(3ξ)]-NH2)"
  target-entity: "Signal transducer and activator of transcription 3 (Mus musculus, UniProt P42227)"
  readout-number: 3.09
- compound: "CC(=O)N[C@@H](Cc1ccc(OP(=O)(O)O)cc1)C(=O)N[C@@H](CC(C)C)C(=O)N1CCC[C@H]1C(=O)N[C@@H](CCC(N)=O)C(=O)O (Ac-[pY]LPQ-OH)"
  target-entity: "Signal transducer and activator of transcription 3 (Mus musculus, UniProt P42227)"
  readout-number: 2.87
- compound: "CCN(CC)C(=O)[C@H](CCC(N)=O)NC(=O)[C@@H]1CCCN1C(=O)[C@H](CC(C)C)NC(=O)[C@H](Cc1ccc(OP(=O)(O)O)cc1)NC(C)=O (Ac-[pY]LPQ-NEt2)"
  target-entity: "Signal transducer and activator of transcription 3 (Mus musculus, UniProt P42227)"
  readout-number: 3.63
- compound: "CC(=O)N[C@@H](Cc1ccc(OP(=O)(O)O)cc1)C(=O)N[C@@H](CC(C)C)C(=O)N1CCC[C@H]1C(=O)N[C@@H](CCC(N)=O)C(=O)N1CCCC1 (Ac-[pY]LPQ-Pyrrolidide)"
  target-entity: "Signal transducer and activator of transcription 3 (Mus musculus, UniProt P42227)"
  readout-number: 3.32
- compound: "CC(=O)N[C@@H](Cc1ccc(OP(=O)(O)O)cc1)C(=O)N[C@@H](CC(C)C)C(=O)N1CCC[C@H]1C(=O)N1CCN(CC(N)=O)CC1"
  target-entity: "Signal transducer and activator of transcription 3 (Mus musculus, UniProt P42227)"
  readout-number: 3.15
- compound: "CC(=O)N[C@@H](Cc1ccc(OP(=O)(O)O)cc1)C(=O)N[C@@H](CC(C)C)C(=O)N1CCC[C@H]1C(=O)NC1CCCC(C(N)=O)C1 (stereo not given in full)"
  target-entity: "Signal transducer and activator of transcription 3 (Mus musculus, UniProt P42227)"
  readout-number: 3.99
- compound: "CC(=O)N[C@@H](Cc1ccc(OP(=O)(O)O)cc1)C(=O)N[C@@H](CC(C)C)C(=O)N1CCC[C@H]1C(=O)N[C@@H](CCC(N)=O)C(=O)N[C@H](C)c1ccccc1 (Ac-[pY]LPQ-{NH(1R-phenylethyl)})"
  target-entity: "Signal transducer and activator of transcription 3 (Mus musculus, UniProt P42227)"
  readout-number: 2.90
- compound: "CC(=O)N[C@@H](Cc1ccc(OP(=O)(O)O)cc1)C(=O)N[C@@H](CC(C)C)C(=O)N1CCC[C@H]1C(=O)Nc1cccc(C(N)=O)c1 (Ac-[pY]LP[3Abz]-NH2)"
  target-entity: "Signal transducer and activator of transcription 3 (Mus musculus, UniProt P42227)"
  readout-number: 4.56
- compound: "CC(=O)N[C@@H](Cc1ccc(OP(=O)(O)O)cc1)C(=O)N[C@@H](CC(C)C)C(=O)N1CCC[C@H]1C(=O)N[C@@H](CCC(N)=O)C(=O)N1CCCCC1 (Ac-[pY]LPQ-Piperidide)"
  target-entity: "Signal transducer and activator of transcription 3 (Mus musculus, UniProt P42227)"
  readout-number: 3.85
- compound: "CC(=O)N[C@@H](Cc1ccc(OP(=O)(O)O)cc1)C(=O)N[C@@H](CC(C)C)C(=O)N1CCC[C@H]1C(=O)N[C@@H](CCC(N)=O)C(=O)N[C@@H](C)c1ccccc1 (Ac-[pY]LPQ-{NH(1S-phenylethyl)})"
  target-entity: "Signal transducer and activator of transcription 3 (Mus musculus, UniProt P42227)"
  readout-number: 2.78

----------
Biological target: Signal transducer and activator of transcription 3 (Mus musculus)
Experiment: Fluorescence Polarization Assay
Conditions: pH 7.5; 22 °C
Square brackets hold non-standard residues; d marks the D form. Peptide text beside a SMILES is read from it. * marks the point of attachment. ξ: configuration not given here. pY = N[C@@H](Cc1ccc(OP(=O)(O)O)cc1)C(=O)O; Dip = N[C@H](C(=O)O)C(c1ccccc1)c1ccccc1; NMeL = CN[C@@H](CC(C)C)C(=O)O; Thr(3ξ) = CC(O)[C@H](N)C(=O)O; Aze = O=C(O)[C@@H]1CCN1; Propionyl = CCC(=O)*
property-name: IC50 (nM)

- compound: "CC(=O)N[C@@H](Cc1ccc(OP(=O)(O)O)cc1)C(=O)N[C@@H](CC(C)C)C(=O)N1CC[C@H]1C(=O)N[C@@H](CCC(N)=O)C(=O)N[C@H](C(N)=O)C(C)O (some centres undefined) (Ac-[pY]L[Aze]Q[Thr(3ξ)]-NH2)"
  value-prefix: "="
  readout-number: 1660
- compound: "CC(=O)N[C@@H](Cc1ccc(OP(=O)(O)O)cc1)C(=O)N[C@H](C(=O)N1CCC[C@H]1C(=O)N[C@@H](CCC(N)=O)C(=O)N[C@H](C(N)=O)C(C)O)C(c1ccccc1)c1ccccc1 (some centres undefined) (Ac-[pY][Dip]PQ[Thr(3ξ)]-NH2)"
  value-prefix: ">"
  readout-number: 100000
- compound: "CC(=O)N[C@@H](Cc1ccc(OP(=O)(O)O)cc1)C(=O)N(C)[C@@H](CC(C)C)C(=O)N1CCC[C@H]1C(=O)N[C@@H](CCC(N)=O)C(=O)N[C@H](C(N)=O)C(C)O (some centres undefined) (Ac-[pY][NMeL]PQ[Thr(3ξ)]-NH2)"
  value-prefix: ">"
  readout-number: 100000
- compound: "CCC(=O)N[C@@H](Cc1ccc(OP(=O)(O)O)cc1)C(=O)N[C@@H](CC(C)C)C(=O)N1CCC[C@H]1C(=O)N[C@@H](CCC(N)=O)C(=O)N[C@H](C(N)=O)C(C)O (some centres undefined) (Propionyl-[pY]LPQ[Thr(3ξ)]-NH2)"
  value-prefix: "="
  readout-number: 497
